# targetDesc: mutant MGL (Homo sapiens, UniProt Q99685, L169S/L176S)
# experimentalProtocol: MGL ThermoFluor assay - mutant
# Format: binding
# measurementSetup: ThermoFluor, compound concentration measured by qNMR, read-out: MGL mutant ThermoFluor qKd (μM) (using qNMR conc.)
assayReadout: Kd (µM)

1 = O=C(c1ccccc1)N1CCN(C2CN(C(=O)c3ccc4c(ccn4-c4ccc(Cl)c(F)c4)c3)C2)CC1
2 = O=C(c1ccc2[nH]ncc2c1)N1CC(N2CCN(C(=O)c3nccs3)CC2)C1
When their Kd values are compared, which is larger, 1 or 2 ? Respond with the label that goes with your answer.
2
(2: 0.996 µM, 1: 0.099 µM)

1 = O=C(c1ccc(-c2cccc(C(F)(F)F)c2)cc1)N1CC(N2CCN(C(=O)c3ccc(Cl)s3)CC2)C1
2 = O=C(c1ccc2c(ccn2-c2ccc(F)cc2)c1)N1CC(N2CCN(C(=O)c3ccc(Cl)s3)CC2)C1
Looking at recorded values for Kd, does 1 or 2 come in lower? Respond with the label that goes with your answer.
1
(1: 0.07 µM, 2: 0.176 µM)

I = O=C(c1ccccc1)N1CCN(C2CN(C(=O)c3ccc4c(cnn4-c4ccc(F)c(F)c4)c3)C2)CC1
II = Cc1cc(-n2ccc3cc(C(=O)N4CC(N5CCN(C(=O)c6cscn6)CC5)C4)ccc32)ccc1C#N
Looking at recorded values for Kd, does I or II come in lower? Respond with the label that goes with your answer.
II

a = O=C(c1cscn1)N1CCN(C2CN(C(=O)c3sc4c(F)c(C(F)(F)F)ccc4c3Cl)C2)CC1
b = O=C(c1cscn1)N1CCN(C2CN(C(=O)c3sc4cc(C(F)(F)F)c(F)cc4c3Cl)C2)CC1
When their Kd values are compared, which is larger, a or b ? Respond with the label that goes with your answer.
b
(b: 0.003 µM, a: 0.001 µM)

---

# targetDesc: mutant MGL (Homo sapiens, UniProt Q99685, L169S/L176S)
# Sequence (Q99685 1-303 L169S/L176S): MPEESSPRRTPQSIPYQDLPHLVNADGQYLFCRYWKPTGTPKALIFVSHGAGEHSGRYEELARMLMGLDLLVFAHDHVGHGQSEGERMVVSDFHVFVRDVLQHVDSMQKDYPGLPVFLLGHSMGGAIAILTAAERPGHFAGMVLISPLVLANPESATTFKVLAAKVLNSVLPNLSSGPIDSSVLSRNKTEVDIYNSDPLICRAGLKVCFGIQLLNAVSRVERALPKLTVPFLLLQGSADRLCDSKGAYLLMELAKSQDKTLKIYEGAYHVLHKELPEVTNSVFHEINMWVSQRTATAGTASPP
# experimentalProtocol: MGL ThermoFluor assay - mutant
# Type: binding
# measurementSetup: ThermoFluor thermal stability binding assay, read-out: MGL mutant ThermoFluor Kd
pKd: −log10 of the molar value.
assayReadout: pKd

>  <compound>
O=C(c1ccc(OCc2cccc(Cl)c2Cl)c(F)c1)N1CC(N2CCN(C(=O)c3nccs3)CC2)C1 [Cpd 405]

>  <val>
8.70

$$$$
>  <compound>
O=C(c1ccc2nc(-c3ccc(C(F)(F)F)cc3)oc2c1)N1CC(N2CCN(C(=O)c3nccs3)CC2)C1 [Cpd 314]

>  <val>
7.41

$$$$
>  <compound>
O=C(c1ccc(OCc2ccccn2)c(Cl)c1)N1CC(N2CCN(C(=O)c3nccs3)CC2)C1 [Cpd 407]

>  <val>
7.01

$$$$
>  <compound>
Cc1cc(-c2ccc(Cl)c(C(F)(F)F)c2)ccc1C(=O)N1CC(N2CCN(C(=O)c3cscn3)CC2)C1 [Cpd 254]

>  <val>
8.23

$$$$
>  <compound>
O=C(c1ccccc1)N1CCN(C2CN(C(=O)c3ccc(OCc4cccc(Br)n4)cc3)C2)CC1 [Cpd 552]

>  <val>
6.40

$$$$
>  <compound>
O=C(c1ccc2c(c1)CCN(c1ccccc1)C2)N1CC(N2CCN(C(=O)c3nccs3)CC2)C1 [Cpd 883]

>  <val>
7.23

$$$$
>  <compound>
O=C(c1nccs1)N1CCN(C2CN(C(=O)c3cccc4nc(Cc5cccc(F)c5)[nH]c34)C2)CC1 [Cpd 990]

>  <val>
6.00

$$$$
>  <compound>
O=C(c1ccc(-c2ccccc2)cc1)N1CC(N2CCN(C(=O)C3CC3(F)F)CC2)C1 (stereo not shown) [Cpd 1256]

>  <val>
6.41

$$$$
>  <compound>
O=C(c1ccc2c(c1)CCCN2c1ccccc1)N1CC(N2CCN(C(=O)c3nccs3)CC2)C1 [Cpd 372]

>  <val>
7.31

$$$$
>  <compound>
Cc1cc(C(=O)N2CC(N3CCN(C(=O)c4ccccc4)CC3)C2)ccc1-c1ccc(F)c(Cl)c1 [Cpd 259]

>  <val>
8.11

$$$$

A = O=C(c1ccccc1)N1CCN(C2CN(C(=O)c3ccc(OCc4ccc(S(=O)(=O)N5CCOCC5)cc4)cc3)C2)CC1 [Cpd 394]
B = Cc1cc(-c2cccc(C(F)(F)F)c2)ccc1C(=O)N1CC(N2CCN(C(=O)c3ccccc3)CC2)C1 [Cpd 238]
Looking at recorded values for pKd, does A or B come in lower? Respond with the label that goes with your answer.
A
